Data origin, for the record: PubChem BioAssay (NCI)

System: HOP-62 NSCLC
Assay: NCI-60 one-dose screen, 48 h
Settings: 10 µM unless noted
The panel holds about 83,000 compounds, 20% with a hit somewhere; the sample as a whole holds those more often. Calls of active or inactive are those of the source. The calls were made as follows: active = growth percent below 10; inactive = the rest.
The categories you may choose from are active, inactive

Some solved cases for reference:
CCOC(CNCc1cc(C)c2[nH]c3ccccc3c2c1C)OCC : inactive
Oc1c(Cl)cc(Oc2cc(Cl)c(O)c(CN3CCOCC3)c2)cc1CN1CCOCC1 : inactive
OCCN1CCN(CCCN2c3ccccc3Sc3ccc(C(F)(F)F)cc32)CC1 : inactive
Cc1cc(C)nc(NS(=O)(=O)c2ccc(Nc3nc4nc(SCc5ccccc5)nc(-c5ccc(O)cc5)c4c(=O)[nH]3)cc2)n1 : inactive
CCOC(=O)C1=CCC(n2cc(C)c(=O)[nH]c2=O)O1 (configuration not stated) : inactive
NS(=O)(=O)c1ccc(-n2ncc3c(SCc4ccccc4)ncnc32)cc1 : inactive
O=C(O)c1ccc2cccnc2c1O : inactive
CC(=O)N1N=C(c2ccc(Cl)cc2)CC1c1c(C)nn(-c2ccccc2)c1N(C)Cc1ccccc1 (configuration not stated) : inactive
O=c1[nH]c(N2CCC(Cc3ccccc3)CC2)nc2sc3c(c12)CCCC3 : inactive
CC(C)N(Cc1ccccc1)c1c(Cl)ssc1=O : inactive

# input Hi, sorry to bother you, what did the test record for O=C1Nc2ccc(Cl)cc2[C@@](C#CC2CC2)(C(F)(F)F)O1 ?
# output inactive

# input Hi, sorry to bother you, what did the test record for O=C(O)CCC(=O)OC[C@@H](NC(=O)C(Cl)Cl)[C@H](O)c1ccc([N+](=O)[O-])cc1 ?
# output inactive

----------
Consider the following compounds; for each one, report its growth.
System: HOP-62 NSCLC
Experiment: NCI-60 one-dose screen, 48 h (100 = growth as untreated, 0 = no growth, -100 = all killed)
Settings: 10 µM unless noted
The panel holds about 83,000 compounds, 20% with a hit somewhere; the sample as a whole holds those more often. The source made the active and inactive calls. The calls were made as follows: active = growth percent below 10; inactive = the rest.

Use these answered entries as a reference point.
COc1cc(/C=C/C(=O)c2c(C)n([O-])c3ccccc3[n+]2=O)cc(OC)c1OC : 105% (inactive)
CC[C@H]1CN2CCc3cc(OC)c(OC)cc3C2C[C@@H]1CC1NCCc2cc(OC)c(OC)cc21 (some centres not stated) : -29.4% (active)
CCN(CC)c1ccc(/C=C/C(=O)c2cccc(NS(C)(=O)=O)c2)cc1 : 42.6% (inactive)
NS(=O)(=O)c1cc(C2(O)NC(=O)c3ccccc32)ccc1Cl (configuration not stated) : 109% (inactive)
c1ccc(N2c3nc4ccccc4cc3Sc3cc4ccccc4nc32)nc1 : 90.8% (inactive)
N#Cc1c(-c2ccccc2)cc(-c2ccccc2)n(CCC(=O)O)c1=O : 51.9% (inactive)

# input What measured growth goes with Cc1ccc(S(=O)(=O)N2CCN(C(=O)CSc3nc4ccc(C)cc4[nH]3)CC2)cc1 ?
# output 106% (inactive)

----------
Tested on: ACHN renal
Test: NCI-60 one-dose screen, 48 h
Details: 10 µM unless noted
This is part of a sample that, as a whole, favours compounds with a hit. Of some 83,000 tested, about 20% had one in any assay. The source made the active and inactive calls. Rule for the calls: active = growth percent below 10; inactive = the rest.
The categories you may choose from are active, inactive

O=C(Nc1ccccc1S)c1ccccc1 : inactive

# input Hi, sorry to bother you, what did the test record for CCOC(=O)/C=C1/SC(=Nc2ccc(C#N)cc2)N(Cc2ccco2)C1=O ?
# output active

# input Hi, sorry to bother you, what did the test record for O=C(Oc1ccccc1)C(Br)C(Br)c1ccccc1 (configuration not stated) ?
# output inactive

# input Hi, sorry to bother you, what did the test record for C1=C(Cc2ccccc2)n2cnc3ncnc(c32)S1 ?
# output inactive

# input Hi, sorry to bother you, what did the test record for CCCCCc1c(C)[nH]c(/C=C2\N=C(c3ccc[nH]3)C=C2Oc2ccccc2)c1C ?
# output active

# input Hi, sorry to bother you, what did the test record for O=c1[nH]cc(Nc2cc(Cl)c3nonc3c2[N+](=O)[O-])c(=O)[nH]1 ?
# output inactive

# input Hi, sorry to bother you, what did the test record for Nc1nc(Nc2ccccc2SSc2ccccc2Nc2nc(N)nc(-c3ccc(I)cc3)n2)nc(-c2ccc(I)cc2)n1 ?
# output inactive

# input Hi, sorry to bother you, what did the test record for COc1cc(/C=C2\SC(N3CCCCC3)=NC2=O)ccc1OCCCCCCOc1ccc(/C=C2\SC(N3CCCCC3)=NC2=O)cc1OC ?
# output inactive
